Property: solubility kinetic; scope: individual compounds
REPORTED CONDITIONS: buffer; pH 7.4; 6.0 h; 150.0 µM
Kindly answer with a numeric value in µg/mL, unit omitted.

So what's the measured solubility kinetic for this one? O=C(Nc1ccc(S(=O)(=O)Nc2nccs2)cc1)c1ccnc(-c2ccccc2)c1 15.6

Subsequent entry: O=C(NC1CC1)c1nc(-c2cccnc2)c2cnccn12 31.6

Try this compound next: O=S(=O)(c1ccccc1)N1CCCCC1CCc1ccccc1 (configuration not stated) 4.39

Please answer likewise for O=C(Nc1ccc(S(=O)(=O)Nc2nccs2)cc1)c1ccnc2ccccc12 2.55

Next compound up: COC(=O)c1ccnc(NC(=S)N2CCN(c3cccc(C(F)(F)F)c3)CC2)c1 2.19

====

REPORTED CONDITIONS: buffer; pH 7.4; 6.0 h; 150.0 µM
Listing of entries alongside the reported solubility kinetic.

Here are 8 compounds together with their reported answers.
COMPOUND	solubility kinetic
O=C(O)CNC(=O)c1c(O)c2ccccc2n(Cc2ccccc2)c1=O	> 52 µg/mL
CC[C@@H]1C(=O)N(C)c2cnc(Nc3ccc(C(=O)NC4CCN(C)CC4)cc3OC)nc2N1C1CCCC1	> 77 µg/mL
O=C(Cn1c2ncccc2c(=O)n1-c1ccccc1)Nc1ccc(Cl)cc1C(F)(F)F	< 1 µg/mL
O=C(Nc1nc(-c2ccccc2)cs1)c1ccncc1NS(=O)(=O)c1ccc(Cl)cc1	< 1 µg/mL
COc1cc(C(=O)N2CCN(c3cc(Cl)ccc3Cl)CC2)cc(OC)c1OC	< 1 µg/mL
O=[S+]([O-])(Nc1ccccc1)c1ccc(NCc2cccc(C(F)(F)F)c2Cl)cc1	< 1 µg/mL
Clc1ccccc1-c1nc(NCc2ccc(-c3cccnc3)cc2)c2ccccc2n1	< 1 µg/mL
CCOc1ccc(N2C(=O)c3n[nH]c(-c4cccs4)c3C2c2cccc(F)c2)cc1 (stereo unspecified)	< 1 µg/mL

I have this compound here, CCOc1ccc(CNc2ccc3c(c2)ncn3C)cc1 , and I need its recorded solubility kinetic. > 42 µg/mL

Moving on to the next compound: O=S(=O)(Nc1nccs1)c1ccc(NCc2cccc(Cl)c2Cl)cc1 < 1 µg/mL

# iterate: Cc1ccc(S(=O)(=O)Nc2cnccc2C(=O)NCCc2ccccc2)cc1 > 58 µg/mL

Now this one: O=C(c1ccc2c(c1)ncn2-c1cccc(C(F)(F)F)c1)N1CCCCC1 > 55 µg/mL

Repeat for the following compound: CN(Cc1cccs1)c1ncnc2ccc(-c3ccc4c(c3)OCO4)cc12 < 1 µg/mL

====

Item-by-item account of solubility kinetic
REPORTED CONDITIONS: buffer; pH 7.4; 6.0 h; 150.0 µM

COMPOUND	solubility kinetic
Cc1ccc(S(=O)(=O)Nc2cnccc2C(=O)Nc2nc(-c3ccc(Cl)cc3)cs2)cc1	< 1 µg/mL
Cc1ccc(-c2cc(C(=O)Nc3ccc(S(=O)(=O)N(C)C)cc3)c3ccccc3n2)cc1C	< 1 µg/mL
COc1ccc(-n2nc(C3CCN(C(=O)c4ccccc4)CC3)[nH]c2=O)cc1	> 56 µg/mL
CN(C)c1cccc(-c2nccc(N3CCC(C(N)=O)CC3)n2)c1	> 48 µg/mL
CC(=O)NC(c1cccs1)c1cc(Br)c2cccnc2c1O (stereo unspecified)	< 1 µg/mL

Field: next compound
# get_value(readout='solubility kinetic', item= Cc1noc(C)c1CN1CCNc2cc(Nc3ccccc3)ncc2C1 ) > 77 µg/mL

====

REPORTED CONDITIONS: buffer; pH 7.4; 6.0 h; 150.0 µM
MEASUREMENT TYPE: solubility kinetic

Some solved cases for reference:
COMPOUND	solubility kinetic
Nc1c(C(=O)N2CCCCC2)sc(=S)n1-c1ccccc1	9.32 µg/mL
CC(C)C(=O)N1CCc2ccc(OCc3nc(C(=O)N4CCCC4)co3)cc2C1c1cccc(F)c1 (configuration not stated)	32.9 µg/mL
COc1ccc(-c2ccc3nc(-c4ccccc4C)oc3c2)c(OC)c1OC	< 1 µg/mL
O=C(Nc1ccccc1C(=O)Nc1cccc(C(F)(F)F)c1)c1ccccc1	< 1 µg/mL
Cc1cccc(C(=O)N2CCc3cc(-c4nc(NC(=O)Cc5ccc6c(c5)OCO6)sc4C)ccc32)c1	4.07 µg/mL
COc1ccc(OC)c(CNc2ncnc3onc(C)c23)c1	> 44 µg/mL

Below: the item to evaluate.
I would be grateful if you could share the reported solubility kinetic for CC(=O)c1c(C)c2cnc(Nc3ccc(N4CCNCC4)cn3)nc2n(C2CCCC2)c1=O . 17.4 µg/mL

====

REPORTED CONDITIONS: buffer; pH 7.4; 6.0 h; 150.0 µM
solubility kinetic: recorded values

Requested field: solubility kinetic. Item: Cc1cc(Br)ccc1NC(=O)C(NS(=O)(=O)c1cccs1)c1ccccc1 (configuration not stated) < 1 µg/mL

For COC(=O)C1=C(C)NC(C)=C(C(=O)O[C@@H]2CCCN(Cc3ccccc3)C2)[C@@H]1c1cccc([N+](=O)[O-])c1 then? < 1 µg/mL

// query: Cc1nc(NC2CCCCC2)c2nc(-c3ccccc3)n(CCN(C)C)c2n1 > 56 µg/mL

Next up: CC(=O)c1c(C)[nH]c(C(=O)N(C)C)c1C > 31 µg/mL

N=c1c2c(ccn1CCc1ccccc1)Oc1ccc3ccccc3c1C2c1ccccc1 (configuration not stated) , same question. < 1 µg/mL

Moving on to O=C(Nc1ncc(Cc2ccc(C(F)(F)F)cc2)s1)c1cn(-c2ccccc2)cn1 < 1 µg/mL

Same for COc1cc2c(cc1OC)C(C[C@H]1CN(S(=O)(=O)c3cccc(C#N)c3)CC[C@H]1CC(=O)O)=NCC2 > 76 µg/mL

====

REPORTED CONDITIONS: buffer; pH 7.4; 6.0 h; 150.0 µM
MEASUREMENT TYPE: solubility kinetic

Consider the following illustrative entries.
COMPOUND	RESULT
Cc1ccc(SC2=NS(=O)(=O)c3ccccc32)c(C)c1	< 1 µg/mL
CCCCCNc1oc(-c2cccc3ccccc23)nc1C#N	< 1 µg/mL

Fill in the blank: the reported solubility kinetic of O=C(NCC1Cn2cccc2CN1Cc1cccnc1)Nc1ccccc1 (stereo not drawn) is ____. > 53 µg/mL

The origin of these recorded values is PubChem BioAssay AID1645848.
